SYSTEM TESTED: 5-HT1 receptor (Rattus norvegicus)
Construct: 5-HT related behaviour in rats following i.v. administration; from tissue; host or cells: living rat (in vivo test, endogenous receptor)
Sequence (P19327 whole entry): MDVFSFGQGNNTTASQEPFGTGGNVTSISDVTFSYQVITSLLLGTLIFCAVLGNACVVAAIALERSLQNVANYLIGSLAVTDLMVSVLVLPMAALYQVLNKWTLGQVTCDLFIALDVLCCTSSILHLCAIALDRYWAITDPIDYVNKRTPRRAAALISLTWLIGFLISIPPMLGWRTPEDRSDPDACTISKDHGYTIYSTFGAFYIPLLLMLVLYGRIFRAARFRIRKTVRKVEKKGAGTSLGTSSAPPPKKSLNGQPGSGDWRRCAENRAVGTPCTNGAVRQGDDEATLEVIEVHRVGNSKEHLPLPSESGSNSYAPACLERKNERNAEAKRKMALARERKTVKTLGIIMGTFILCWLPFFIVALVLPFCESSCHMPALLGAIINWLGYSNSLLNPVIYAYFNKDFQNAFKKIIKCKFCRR
PROTOCOL TEXT: 5-HT1 receptor agonist activity in vivo: 5-HT related behaviour in rats following i.v. administration
CONDITION PARAMETERS: iv, calculated by the method of Kimball et al
METRIC NAME: ED50 (mg/kg)
Number only, in mg/kg; omit the unit.

Ask | Please look at this compound and report its ED50: c1cnc2c(c1)CCC(N1CCC1)C2 (centres unmarked) [Example 50, 7-Azetidino-5,6,7,8-tetrahydroquinoline]
Reply | 1.1

Ask | Recall and state the measured ED50 for CN(CCCCN1C(=O)CC2(CCCC2)CC1=O)C1CCc2cccnc2C1 (centres unmarked) .
Reply | 0.81

Ask | // fetch ED50 given entry c1cnc2c(c1)CCC(N1CCCC1)C2 (centres unmarked)
Reply | 0.57

Ask | Identify the reported ED50 for the following entry. CCCN(CCC)C1CCc2cccnc2C1 (centres unmarked)
Reply | 0.62

Ask | Consider the compound CCCN(CCNC(=O)c1ccc(F)cc1)C1CCc2cccnc2C1 (centres unmarked) . State its measured ED50.
Reply | 0.52

Measured values drawn from patent US5075303A for this set.
